biological target: T1, CTNI quality control recombinant protein (PK2-CTNI-1, 170120, produced by the applicant) (human, UniProt P19429 2-210, limits assumed); experiment: AMC sensor kinetics, antibody captured, cTnI analyte
T1 construct: also called cardiac troponin I
T1 sequence (P19429 2-210 limits assumed): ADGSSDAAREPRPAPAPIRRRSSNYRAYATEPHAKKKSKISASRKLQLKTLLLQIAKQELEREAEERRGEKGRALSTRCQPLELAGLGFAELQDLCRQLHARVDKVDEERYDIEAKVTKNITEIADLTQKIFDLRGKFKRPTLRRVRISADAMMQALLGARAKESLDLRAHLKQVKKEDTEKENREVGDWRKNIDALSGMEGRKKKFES
Exercise: for every item that follows, state its recorded koff.
One number for each entry, in s⁻¹.

Recorded results for 2 binders are shown here.
binder	numeric_result
Mutation 1-47 (antibody, V domains shown, built as for Mutation 1) VH: EVQLQQSGAELVKPGASVKLSCTASGFNLKDYYMHWMKQRTEQGLDWIGRIDPEDAETKYAPEFQGKATITADTSSNTAYLQLSTLTSEDTAVYYCARYYSSYVPFVYWGQGTLVTASA VL: DVVMTQTPLSLSVSLGDQASISCRSSQSLLYSNRHTYLHWYLQKPGQSPKLLIFQVSNRFSGVPDRFSGSGSGTDFTLKINRVEAEDLGVYFCSQSTHLPFTFGSGTKLEIKR	0.000507
Mutation 1-25 (antibody, V domains shown, built as for Mutation 1) VH: EVQLQQSGAELVKPGASVKLSCTASGFNLKDYYMHWMKQRTEQGLDWIGRIDPEDGETRYAPEFQGKATITADTSSNTAYLQLSTLTSEDTAVYYCARYYSSYIPFVYWGQGTLVTASA VL: DVVMTQTPLSLSVSLGDQASISCRSSQSIIYSNRHTYLHWYLQKPGQSPKLLIFQISNRFSGVPDRFSGSGSGTDFTLKINRVEAEDLGVYFCSQSTHLPYTFGSGTKLEIKR	0.000659

Please look at the following binder next.
Identify koff associated with the binder Mutation 1-17 (antibody, V domains shown, built as for Mutation 1) VH: EVQLQQSGAELVKPGASVKLSCTASGFNLKDYYMHWMKQRTEQGLDWIGRIDPEDAETRYAPEFQGKATITADTSSNTAYLQLSTLTSEDTAVYYCARYYSSYLPFVYWGQGTLVTASA VL: DVVMTQTPLSLSVSLGDQASISCRSSQSIIYSNRHTYLHWYLQKPGQSPKLLIFQLSNRFSGVPDRFSGSGSGTDFTLKINRVEAEDLGVYFCSQSTHIPYTFGSGTKLEIKR 0.000565

These entries and their values trace back to patent US20210340231A1.
